- tested-system: Nav1.5 (SCN5A) (Homo sapiens, UniProt Q14524)
- Sequence (Q14524 whole entry): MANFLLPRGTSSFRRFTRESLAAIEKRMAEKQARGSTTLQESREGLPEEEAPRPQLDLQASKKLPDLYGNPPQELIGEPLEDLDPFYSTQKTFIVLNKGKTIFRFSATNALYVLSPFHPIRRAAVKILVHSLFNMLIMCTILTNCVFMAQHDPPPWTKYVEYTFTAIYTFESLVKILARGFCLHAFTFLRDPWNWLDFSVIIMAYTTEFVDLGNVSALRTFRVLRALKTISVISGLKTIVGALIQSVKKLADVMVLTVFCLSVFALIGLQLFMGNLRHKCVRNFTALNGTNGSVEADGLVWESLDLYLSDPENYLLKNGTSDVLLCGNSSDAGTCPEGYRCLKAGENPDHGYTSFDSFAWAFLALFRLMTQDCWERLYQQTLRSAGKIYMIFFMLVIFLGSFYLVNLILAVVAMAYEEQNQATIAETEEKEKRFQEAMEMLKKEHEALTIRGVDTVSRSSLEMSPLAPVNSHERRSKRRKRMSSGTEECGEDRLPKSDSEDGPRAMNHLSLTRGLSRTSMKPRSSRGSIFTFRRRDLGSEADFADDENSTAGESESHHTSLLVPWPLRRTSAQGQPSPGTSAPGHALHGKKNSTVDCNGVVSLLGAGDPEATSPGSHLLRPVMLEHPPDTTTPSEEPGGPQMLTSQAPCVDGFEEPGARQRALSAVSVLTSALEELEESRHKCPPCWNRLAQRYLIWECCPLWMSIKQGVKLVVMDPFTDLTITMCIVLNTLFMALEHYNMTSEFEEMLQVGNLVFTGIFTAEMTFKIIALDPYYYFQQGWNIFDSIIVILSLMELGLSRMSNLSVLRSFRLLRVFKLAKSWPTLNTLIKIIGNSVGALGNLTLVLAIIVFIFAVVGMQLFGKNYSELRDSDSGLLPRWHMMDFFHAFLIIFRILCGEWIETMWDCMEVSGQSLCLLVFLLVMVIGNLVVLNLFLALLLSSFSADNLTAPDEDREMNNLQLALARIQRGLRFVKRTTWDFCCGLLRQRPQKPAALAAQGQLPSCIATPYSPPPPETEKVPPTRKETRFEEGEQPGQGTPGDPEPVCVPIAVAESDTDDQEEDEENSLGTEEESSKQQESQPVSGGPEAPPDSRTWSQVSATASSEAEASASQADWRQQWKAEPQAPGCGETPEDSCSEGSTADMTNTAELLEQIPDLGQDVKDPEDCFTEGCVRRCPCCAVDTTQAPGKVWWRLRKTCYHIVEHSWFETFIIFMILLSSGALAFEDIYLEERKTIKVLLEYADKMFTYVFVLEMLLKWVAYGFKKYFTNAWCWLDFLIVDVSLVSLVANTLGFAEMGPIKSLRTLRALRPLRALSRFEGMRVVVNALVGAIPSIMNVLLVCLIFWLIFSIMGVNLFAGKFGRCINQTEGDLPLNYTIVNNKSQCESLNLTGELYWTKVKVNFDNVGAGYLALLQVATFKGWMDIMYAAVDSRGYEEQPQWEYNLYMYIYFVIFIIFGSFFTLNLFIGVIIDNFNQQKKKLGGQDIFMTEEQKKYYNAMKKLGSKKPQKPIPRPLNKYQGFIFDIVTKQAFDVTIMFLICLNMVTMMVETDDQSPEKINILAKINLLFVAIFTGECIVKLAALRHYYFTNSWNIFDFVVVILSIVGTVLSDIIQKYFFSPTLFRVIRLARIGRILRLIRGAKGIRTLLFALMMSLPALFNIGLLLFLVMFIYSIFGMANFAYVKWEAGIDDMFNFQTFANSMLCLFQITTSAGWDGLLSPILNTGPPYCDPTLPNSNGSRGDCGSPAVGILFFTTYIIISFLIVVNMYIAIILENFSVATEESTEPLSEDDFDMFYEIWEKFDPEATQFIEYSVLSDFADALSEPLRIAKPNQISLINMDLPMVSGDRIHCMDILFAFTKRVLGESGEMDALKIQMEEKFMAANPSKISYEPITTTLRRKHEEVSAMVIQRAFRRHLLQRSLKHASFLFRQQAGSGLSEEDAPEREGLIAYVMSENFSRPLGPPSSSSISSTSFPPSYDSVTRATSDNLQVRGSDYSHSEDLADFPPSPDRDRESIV
- method-summary: Inhibition of human Nav1.5 expressed in HEK293 cells at 10 uM by QPatch voltage clamp assay relative to control
- Assay type: cell-based
- assay-context: HEK293 cells expressing human Nav1.5
measured-property: inhibition at 10 µM (%)
Answers are plain numbers, in %.

Lookup result for C[C@@]1(N2CCN(c3cc4cc(NC(=O)[C@H]5CC56CCOCC6)ncc4cc3Cl)CC2)COC[C@@H]1O ; measured inhibition at 10 µM: 23

* * *

- tested-system: Voltage-gated inwardly rectifying potassium channel KCNH2 (Homo sapiens, UniProt Q12809)
- Sequence (Q12809 whole entry): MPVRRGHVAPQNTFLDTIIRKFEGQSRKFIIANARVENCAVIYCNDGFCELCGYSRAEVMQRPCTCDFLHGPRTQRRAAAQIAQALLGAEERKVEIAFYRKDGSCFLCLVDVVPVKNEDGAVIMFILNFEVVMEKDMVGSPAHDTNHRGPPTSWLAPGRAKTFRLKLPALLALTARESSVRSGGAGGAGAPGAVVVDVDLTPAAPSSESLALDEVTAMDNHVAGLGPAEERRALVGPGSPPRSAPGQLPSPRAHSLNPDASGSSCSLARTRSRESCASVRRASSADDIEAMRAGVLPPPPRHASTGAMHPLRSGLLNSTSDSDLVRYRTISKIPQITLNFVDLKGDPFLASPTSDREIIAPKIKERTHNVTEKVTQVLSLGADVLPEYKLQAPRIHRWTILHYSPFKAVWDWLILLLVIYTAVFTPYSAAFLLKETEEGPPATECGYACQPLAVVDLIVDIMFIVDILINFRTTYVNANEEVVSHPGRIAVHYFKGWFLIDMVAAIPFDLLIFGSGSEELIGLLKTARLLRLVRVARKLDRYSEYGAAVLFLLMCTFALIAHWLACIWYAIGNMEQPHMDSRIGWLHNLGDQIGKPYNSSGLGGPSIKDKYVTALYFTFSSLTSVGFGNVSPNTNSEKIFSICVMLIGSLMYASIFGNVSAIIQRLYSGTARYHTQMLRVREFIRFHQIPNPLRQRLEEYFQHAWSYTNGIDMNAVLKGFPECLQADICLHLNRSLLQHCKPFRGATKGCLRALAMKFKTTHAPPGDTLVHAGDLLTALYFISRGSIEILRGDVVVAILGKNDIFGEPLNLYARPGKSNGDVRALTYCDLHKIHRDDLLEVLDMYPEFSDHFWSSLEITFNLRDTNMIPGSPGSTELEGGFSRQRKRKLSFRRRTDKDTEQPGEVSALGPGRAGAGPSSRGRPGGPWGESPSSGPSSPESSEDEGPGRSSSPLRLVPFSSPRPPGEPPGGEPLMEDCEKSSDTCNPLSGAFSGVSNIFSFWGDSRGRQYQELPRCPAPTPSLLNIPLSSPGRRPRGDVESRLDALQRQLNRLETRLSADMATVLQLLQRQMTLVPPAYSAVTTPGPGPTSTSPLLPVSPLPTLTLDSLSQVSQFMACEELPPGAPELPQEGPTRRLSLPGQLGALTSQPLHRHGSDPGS
- method-summary: Inhibition of hERG expressed in CHO cells by QPatch voltage clamp assay
measured-property: IC50 (µM)
Answers are plain numbers, in µM.

Worked set:
>>> quantitative_readout("C[C@@]1(N2CCC(c3cc4cc(NC(=O)C5CC56CC6)ncc4cc3Cl)CC2)COC[C@@H]1O (some centres undefined)")
3.7
>>> quantitative_readout("Cn1cc([C@H]2C[C@@H]2C(=O)Nc2cc3cc(C4CCN([C@]5(C)COC[C@@H]5O)CC4)c(Cl)cc3cn2)cn1")
9.5

Please look at the following compound next.
Lookup result for Cc1cc2cnc(NC(=O)C3CC34CC4)cc2cc1C1CCN([C@]2(C)COC[C@@H]2O)CC1 (some centres undefined) ; measured IC50: 4.8
